Biological target: T1, human CD81 mutant V169A (human, UniProt P60033 1-236, limits assumed)
T1 construct: as m30; not shown: C-terminal V5 and 6xHis tags
T1 sequence: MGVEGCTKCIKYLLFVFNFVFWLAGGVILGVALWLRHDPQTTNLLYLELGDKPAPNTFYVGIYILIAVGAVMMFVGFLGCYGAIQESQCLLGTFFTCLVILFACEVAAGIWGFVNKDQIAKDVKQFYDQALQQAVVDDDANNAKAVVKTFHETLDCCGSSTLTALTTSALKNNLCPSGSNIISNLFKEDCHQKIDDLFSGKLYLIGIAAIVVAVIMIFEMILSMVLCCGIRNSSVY
Test: ELISA
Property Name: relative binding affinity

binder="002-F07 (antibody, human IgG4 S228P, lambda, V domains shown, IgG4 S228P) VH: EVQLLESGGGLVQPGGSLRLSCAASGFTFSSNYMSWVRQAPGKGLEWVSYISSSSTYTDYADSVKGRFTISRDNSKNTLYLQMNSLRAEDTAVYYCARYSYGRDSFDYWGQGTLVTVSS VL: QSVLTQPFSASGTPGQRVTISCTGSTSNIGAGFDTHWYQQLPGTAPKLLIYGNSNRPSGVPDRFSGSKSGTTASLAISGLRSEDEADYYCQSYDTNLSVWVFGGGTKLTVLG" property_name="relative binding affinity" data_value="< 20%"
binder="002-A07 S115G (antibody, human IgG4 S228P, lambda, V domains shown, IgG4 S228P; glycosylation site mutant of 002-A07 VL) VH: EVQLLESGGGLVQPGGSLRLSCAASGFTFSSNYMSWVRQAPGKGLEWVSYISSSSTYTDYADSVKGRFTISRDNSKNTLYLQMNSLRAEDTAVYYCARYSYGRDNFDYWGQGTLVTVSS VL: QSVLTQPPSASGTPGQRVTISCTGSTSNIGAGYDTHWYQQLPGTAPKLLIYGNSNRPSGVPDRFSGSKSGTSASLAISGLRSEDEADYYCQSYDTNLGVWVFGGGTKLTVLG" property_name="relative binding affinity" data_value="< 20%"
binder="001-B06 (antibody, human IgG4 S228P, lambda, V domains shown, IgG4 S228P) VH: EVQLLESGGGLVQPGGSLRLSCAASGFTFSSNYMSWVRQAPGKGLEWVSYISSSSTYTDYADSVKGRFTISRDNSKNTLYLQMNSLRAEDTAVYYCARYSYGRDTFDYWGQGTLVTVSS VL: QSVLTQPFSASGTPGQRVTISCTGSTSNIGAGYDTHWYQQLPGTAPKLLIYGNSNRPSGVPDRFSGSKSGTSASLAISGLRPEDEADYYCQSYDTSLSVWVFGGGTKLTVLG" property_name="relative binding affinity" data_value="< 20%"
